Reference source for all entries: patent US8853230B2

# MEASURED_ON: TYK2 (Homo sapiens, UniProt P29597)
# Construct: 5 μl of catalytic domain recombinant Kinase enzyme+Tyr peptide substrate (Invitrogen, Calif.)
# Sequence (P29597 897-1176 limits assumed): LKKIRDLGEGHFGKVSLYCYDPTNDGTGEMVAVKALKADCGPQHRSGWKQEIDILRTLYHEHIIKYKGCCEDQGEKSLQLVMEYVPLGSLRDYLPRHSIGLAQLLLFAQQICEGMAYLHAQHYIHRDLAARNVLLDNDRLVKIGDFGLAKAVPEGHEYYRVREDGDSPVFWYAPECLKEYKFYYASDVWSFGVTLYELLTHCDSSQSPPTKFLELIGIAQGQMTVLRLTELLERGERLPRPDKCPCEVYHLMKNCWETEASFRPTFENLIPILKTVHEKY
# ASSAY_COMMENT: Z'-LYTE kinase assay, TYK2 tyrosine phosphorylation activity
# Method: JAK and TYK2 tyrosine phosphorylation activity is measured using the Z′-LYTE™ Technology developed by Invitrogen Corporation (Carlsbad, Calif.). For JAK1, JAK2 and JAK3 the Z′-LYTE™ Kinase Assay Kit-Tyr6 Peptide (part number PV4122) was used. […] The Z′-LYTE™ biochemical assay employs a fluorescence resonance energy transfer (FRET) coupled-enzyme format and is based on the differential sensitivity of phosphorylated and non-phosphorylated peptides to proteolitic cleavage. […]
pIC50: −log10 of the molar value.
QUANTITY_MEASURED: pIC50

{"COMPOUND": "CC(C)CNc1cc(Nc2cccc(NC(=O)N3CCCC3)c2)ncc1C(N)=O", "MEASURED_ON": "TYK2 (Homo sapiens, UniProt P29597)", "READING": "6.00 to 7.00"}
{"COMPOUND": "CC(=O)Nc1cccc(Nc2ncc(C(N)=O)c(N[C@H](C)C(N)=O)n2)c1", "MEASURED_ON": "TYK2 (Homo sapiens, UniProt P29597)", "READING": "7.00 to 8.00"}
{"COMPOUND": "CC(=O)N(C)c1cccc(Nc2ncc(C(N)=O)c(NCc3ccccc3)n2)c1", "MEASURED_ON": "TYK2 (Homo sapiens, UniProt P29597)", "READING": "7.00 to 8.00"}
{"COMPOUND": "CCC(C)CNc1nc(Nc2ccc(Cl)c(NC(=O)N3CCCC3)c2)ncc1C(N)=O (centres unmarked)", "MEASURED_ON": "TYK2 (Homo sapiens, UniProt P29597)", "READING": "7.00 to 8.00"}
{"COMPOUND": "CC(=O)Nc1cc(Nc2ncc(C(N)=O)c(NCc3ccccc3)n2)ccc1OCCN1CCCC1", "MEASURED_ON": "TYK2 (Homo sapiens, UniProt P29597)", "READING": "8.00 to 9.00"}
{"COMPOUND": "C[C@@H](Nc1nc(Nc2cccc(N(C)C(=O)N3CCCC3)c2)ncc1C(N)=O)c1ccccc1", "MEASURED_ON": "TYK2 (Homo sapiens, UniProt P29597)", "READING": "6.00 to 7.00"}
{"COMPOUND": "NC(=O)c1cnc(Nc2ccc(Cl)c(NC(=O)N3CCCC3)c2)nc1NCc1ccccc1F", "MEASURED_ON": "TYK2 (Homo sapiens, UniProt P29597)", "READING": "7.00 to 8.00"}
{"COMPOUND": "C[C@@H](Nc1cc(Nc2cccc(NC(=O)N3CCCC3)c2)ncc1C(N)=O)c1ccccc1", "MEASURED_ON": "TYK2 (Homo sapiens, UniProt P29597)", "READING": "6.00 to 7.00"}
{"COMPOUND": "COC(=O)Nc1cc(Nc2ncc(C(N)=O)c(NCc3ccccc3)n2)ccc1Cl", "MEASURED_ON": "TYK2 (Homo sapiens, UniProt P29597)", "READING": "7.00 to 8.00"}
{"COMPOUND": "CCNc1nc(Nc2cccc(NC(=O)N3CCCC3)c2)ncc1C(N)=O", "MEASURED_ON": "TYK2 (Homo sapiens, UniProt P29597)", "READING": "7.00 to 8.00"}
{"COMPOUND": "NC(=O)c1cnc(Nc2cccc(NC(=O)N3CC[C@H](O)C3)c2)nc1NCc1ccccc1", "MEASURED_ON": "TYK2 (Homo sapiens, UniProt P29597)", "READING": "8.00 to 9.00"}
{"COMPOUND": "CN(C)C(=O)Nc1ccc(F)c(Nc2ncc(C(N)=O)c(NCc3ccccc3)n2)c1", "MEASURED_ON": "TYK2 (Homo sapiens, UniProt P29597)", "READING": "6.00 to 7.00"}
{"COMPOUND": "CC(=O)Nc1cccc(Nc2ncc(C(N)=O)c(N[C@H](CO)Cc3ccccc3)n2)c1", "MEASURED_ON": "TYK2 (Homo sapiens, UniProt P29597)", "READING": "7.00 to 8.00"}
{"COMPOUND": "CC(=O)N(c1cccc(Nc2ncc(C(N)=O)c(N[C@H](C)c3ccccc3)n2)c1)C1CC1", "MEASURED_ON": "TYK2 (Homo sapiens, UniProt P29597)", "READING": "6.00 to 7.00"}
{"COMPOUND": "NC(=O)c1cnc(Nc2cccc(NC(=O)N3CCCC3)c2)nc1NCC(F)(F)F", "MEASURED_ON": "TYK2 (Homo sapiens, UniProt P29597)", "READING": "7.00 to 8.00"}
{"COMPOUND": "CCOC(=O)Nc1cccc(Nc2ncc(C(N)=O)c(NCc3ccccc3)n2)c1", "MEASURED_ON": "TYK2 (Homo sapiens, UniProt P29597)", "READING": "7.00 to 8.00"}
{"COMPOUND": "CC[C@H](C)Nc1nc(Nc2cccc(NC(=O)N3CCCC3)c2)ncc1C(N)=O", "MEASURED_ON": "TYK2 (Homo sapiens, UniProt P29597)", "READING": "7.00 to 8.00"}

----------
# MEASURED_ON: JAK1 (Homo sapiens, UniProt P23458)
# Construct: 5 μl of catalytic domain recombinant Kinase enzyme+Tyr peptide substrate (Invitrogen, Calif.)
# Sequence (P23458 875-1153 limits assumed): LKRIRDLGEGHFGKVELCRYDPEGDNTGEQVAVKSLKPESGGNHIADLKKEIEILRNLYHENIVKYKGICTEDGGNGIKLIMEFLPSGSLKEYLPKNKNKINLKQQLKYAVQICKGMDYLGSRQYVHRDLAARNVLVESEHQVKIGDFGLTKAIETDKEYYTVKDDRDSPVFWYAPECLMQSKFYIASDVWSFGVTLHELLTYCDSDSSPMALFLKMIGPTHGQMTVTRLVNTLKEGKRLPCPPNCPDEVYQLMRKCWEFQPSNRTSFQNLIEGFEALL
# ASSAY_COMMENT: Z'-LYTE kinase assay, JAK1 tyrosine phosphorylation activity
# CONDITION_CONTEXT: read-out: JAK 1 IC50
pIC50: −log10 of the molar value.
// reported pIC50 for each item listed
QUANTITY_MEASURED: pIC50

{"COMPOUND": "CC(=O)Nc1cccc(Nc2cc(NC3Cc4ccccc4C3)c(C(N)=O)cn2)c1 [Example 333]", "READING": "< 6.00"}
{"COMPOUND": "COC[C@@H]1CCCN1C(=O)Nc1cccc(Nc2ncc(C(N)=O)c(N[C@H](C)c3ccccc3)n2)c1 [Example 138]", "READING": "6.00 to 7.00"}
{"COMPOUND": "COCC(=O)Nc1cccc(Nc2ncc(C(N)=O)c(NC(C)C)n2)c1 [Example 57]", "READING": "7.00 to 8.00"}
{"COMPOUND": "CNC(=O)c1cnc(Nc2cccc(NC(=O)COC)c2)nc1NC1Cc2ccccc2C1 [Example 114]", "READING": "7.00 to 8.00"}
{"COMPOUND": "NC(=O)c1cnc(Nc2cccc(NC(=O)N3CCCC3)c2)cc1NCc1ccccc1 [Example 326]", "READING": "6.00 to 7.00"}
{"COMPOUND": "C[C@@H](Nc1nc(Nc2cccc(NC(=O)[C@@H]3CCCO3)c2)ncc1C(N)=O)c1ccccc1 [Example 207]", "READING": "6.00 to 7.00"}
{"COMPOUND": "CC(=O)Nc1cccc(Nc2ncc(C(N)=O)c(NCCC(N)=O)n2)c1 [Example 61]", "READING": "7.00 to 8.00"}
{"COMPOUND": "NC(=O)c1cnc(Nc2ccc(F)c(NC(=O)N3CCCC3)c2)cc1N[C@H](CO)c1ccccc1 [Example 313]", "READING": "< 6.00"}
{"COMPOUND": "COCC(=O)N(C)c1cccc(Nc2ncc(C(N)=O)c(NC(C)C)n2)c1 [Example 88]", "READING": "7.00 to 8.00"}
{"COMPOUND": "NC(=O)c1cnc(Nc2ccc(F)c(NC(=O)N3CCC3)c2)cc1N[C@H](CO)c1ccccc1 [Example 311]", "READING": "< 6.00"}
{"COMPOUND": "NC(=O)c1cnc(Nc2cccc(NC(=O)N3CCCC3)c2)nc1NCc1ccccc1 [Example 40]", "READING": "7.00 to 8.00"}
{"COMPOUND": "CC(=O)Nc1cccc(Nc2ncc(C(N)=O)c(N[C@@H](CO)CC(C)C)n2)c1 [Example 62]", "READING": "7.00 to 8.00"}
{"COMPOUND": "CC(=O)Nc1cccc(Nc2ncc(C(N)=O)c(NCc3cc(F)ccc3F)n2)c1 [Example 102]", "READING": "6.00 to 7.00"}
{"COMPOUND": "NC(=O)c1cnc(Nc2cccc(NC(=O)N3CCCC3)c2)cc1NCc1cccc(F)c1 [Example 309]", "READING": "6.00 to 7.00"}
{"COMPOUND": "CC(=O)Nc1cccc(Nc2ncc(C(N)=O)c(N[C@H](CO)Cc3ccccc3)n2)c1 [Example 76]", "READING": "6.00 to 7.00"}
{"COMPOUND": "NC(=O)c1cnc(Nc2cccc(NC(=O)N3CCCC3)c2)nc1NCC(F)(F)F [Example 136]", "READING": "7.00 to 8.00"}
{"COMPOUND": "NC(=O)Nc1cccc(Nc2ncc(C(N)=O)c(NCc3ccccc3)n2)c1 [Example 38]", "READING": "7.00 to 8.00"}
{"COMPOUND": "NC(=O)c1cnc(Nc2cccc(NC(=O)[C@@H]3CCCO3)c2)nc1NCc1cccc(F)c1 [Example 208]", "READING": "7.00 to 8.00"}
{"COMPOUND": "CC(=O)Nc1cccc(Nc2ncc(C(N)=O)c(N[C@@H]3CCCNC3)n2)c1 [Example 66]", "READING": "6.00 to 7.00"}
{"COMPOUND": "CC[C@H](C)Nc1nc(Nc2cccc(NC(=O)N3CCCC3)c2)ncc1C(N)=O [Example 145]", "READING": "7.00 to 8.00"}
{"COMPOUND": "CNC(=O)Nc1cc(Nc2ncc(C(N)=O)c(NCc3ccccc3F)n2)ccc1Cl [Example 169]", "READING": "6.00 to 7.00"}
{"COMPOUND": "CC(=O)Nc1cccc(Nc2ncc(C(N)=O)c(NCC3CCCN(C(=O)OCc4ccccc4)C3)n2)c1 (stereo not drawn) [Example 115]", "READING": "6.00 to 7.00"}
{"COMPOUND": "CC(=O)Nc1cccc(Nc2ncc(C(N)=O)c(NCc3ccncc3)n2)c1 [Example 189]", "READING": "6.00 to 7.00"}
{"COMPOUND": "COCC(=O)N(C)c1cccc(Nc2ncc(C(N)=O)c(NC3CCCC3)n2)c1 [Example 89]", "READING": "7.00 to 8.00"}
{"COMPOUND": "CC(=O)Nc1cc(Nc2ncc(C(N)=O)c(Nc3cccc4nsnc34)n2)ccc1OCCN1CCCC1 [Example 227]", "READING": "7.00 to 8.00"}
{"COMPOUND": "COCC(=O)Nc1cccc(Nc2ncc(C(N)=O)c(NCC3CC3)n2)c1 [Example 124]", "READING": "7.00 to 8.00"}
{"COMPOUND": "C[C@@H](Nc1nc(Nc2ccc(Cl)c(NC(N)=O)c2)ncc1C(N)=O)c1ccccc1 [Example 193]", "READING": "6.00 to 7.00"}
{"COMPOUND": "CC(=O)Nc1cccc(Nc2cc(N[C@H]3CCc4ccccc43)c(C(N)=O)cn2)c1 [Example 335]", "READING": "6.00 to 7.00"}
{"COMPOUND": "COCC(=O)Nc1cc(Nc2ncc(C(N)=O)c(N[C@H](C)c3ccccc3)n2)ccc1Cl [Example 109]", "READING": "6.00 to 7.00"}
{"COMPOUND": "CC(=O)Nc1cc(Nc2ncc(C(N)=O)c(NCc3ccccc3)n2)ccc1OCCN1CCCC1 [Example 244]", "READING": "7.00 to 8.00"}
{"COMPOUND": "NC(=O)c1cnc(Nc2ccc(Cl)c(NC(=O)N3CCCC3)c2)nc1NC1CCCC1 [Example 167]", "READING": "7.00 to 8.00"}
{"COMPOUND": "CC(=O)Nc1cccc(Nc2cc(NCc3ccccc3)c(C(N)=O)cn2)c1 [Example 213]", "READING": "6.00 to 7.00"}
{"COMPOUND": "CC(=O)Nc1cccc(Nc2ncc(C(N)=O)c(NCC(N)=O)n2)c1 [Example 50]", "READING": "6.00 to 7.00"}
